targetUnderTest: UniProtKB P50406
Sequence (P50406 whole entry): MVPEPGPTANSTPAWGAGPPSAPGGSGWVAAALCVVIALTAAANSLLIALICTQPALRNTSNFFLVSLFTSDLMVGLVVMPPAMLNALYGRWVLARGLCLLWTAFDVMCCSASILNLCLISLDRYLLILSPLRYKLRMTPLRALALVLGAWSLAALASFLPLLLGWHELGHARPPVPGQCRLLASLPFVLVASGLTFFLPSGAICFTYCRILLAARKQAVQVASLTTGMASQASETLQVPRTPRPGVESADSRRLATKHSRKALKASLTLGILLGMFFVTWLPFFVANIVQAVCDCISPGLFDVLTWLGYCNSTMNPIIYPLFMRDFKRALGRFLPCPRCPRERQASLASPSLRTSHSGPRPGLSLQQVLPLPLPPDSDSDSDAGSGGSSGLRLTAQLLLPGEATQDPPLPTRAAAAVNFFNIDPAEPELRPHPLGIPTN
measuredParameter: pKi
# pKi = -log10(concentration in molar units)

Enquiry: Test system UniProtKB P50406; read-out pKi; what value for "CCNc1cc(N2CCNCC2)ccc1S(=O)(=O)c1ccccc1" ?
Return: 8.57

----------
Documented melting point across a set of compounds
Counter-ions that a name gives are not always drawn.

// solved cases for melting point follow
Nc1cc(N2CCNCC2)ccc1S(=O)(=O)c1ccc(F)cc1 :: 144 to 146 °C
Cc1ccc(S(=O)(=O)c2ccc(N3CCNCC3)cc2N)cc1 :: 102 to 106 °C
CCNc1cc(N2CCNCC2)ccc1S(=O)(=O)c1ccccc1 (as salt: salt) :: 121 to 123 °C
CN1CCN(c2ccc(S(=O)(=O)c3cccc(F)c3)c(N)c2)CC1 :: 89 to 92 °C

Enquiry: What does the data say about its melting point? Entry: "Cc1ccc(S(=O)(=O)c2ccc(N3CCN(C)CC3)cc2N)cc1"
Return: 148 to 151 °C
